# credit: patent US20240158446A1

We begin with a simple list: items and their reported Kd.
# TARGET UNDER TEST: GDP-bound KRAS wild-type protein (Homo sapiens)
# Sequence (P01116 whole entry): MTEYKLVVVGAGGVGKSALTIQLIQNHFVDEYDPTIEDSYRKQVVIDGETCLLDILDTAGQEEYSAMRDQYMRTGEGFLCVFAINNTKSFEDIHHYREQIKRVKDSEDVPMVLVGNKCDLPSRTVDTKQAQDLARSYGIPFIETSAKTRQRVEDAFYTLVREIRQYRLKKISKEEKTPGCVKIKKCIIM
# PROTOCOL DETAILS: Binding to KRAS by surface plasmon resonance (SPR), Single Cycle Kinetics
# STATED CONDITIONS: SPR, Single Cycle Kinetics, GDP-bound KRAS wild-type protein; read-out: KRAS KD
// units = nM; emit number, no label

Answered examples (5):
MOLECULE SMILES | Kd (nM)
CCO[C@@H]1C[C@H]2C(=O)NC3(CCC3)C(=O)N(C)[C@@H](C(CC)CC)C(=O)N(C)[C@H](C(=O)N(C)C)CC(=O)N(C)[C@@H](C)C(=O)N[C@@H]([C@@H](C)CC)C(=O)N(C)CC(=O)N(C)[C@H]3C/C=C\CCN(C3=O)[C@@H](Cc3ccc(C(F)(F)F)cc3)C(=O)N(C)CC(=O)N[C@@H](CCc3cc(F)c(C(F)(F)F)c(F)c3)C(=O)N2C1 | 0.17
CCO[C@@H]1C[C@H]2C(=O)NC3(CCC3)C(=O)N(C)[C@@H](C3CCCC3)C(=O)N(C)[C@H](C(=O)N(C)C)CC(=O)N(C)[C@@H](CC)C(=O)N[C@@H]([C@@H](C)CC)C(=O)N(C)CC(=O)N(C)[C@H]3CCCCN(C3=O)[C@@H](Cc3ccc(C(F)(F)F)cc3)C(=O)N(C)CC(=O)N[C@@H](CCc3ccc(C(F)(F)F)c(OC)c3)C(=O)N2C1 | 0.022
CCCOC[C@H]1C(=O)N[C@@H]([C@@H](C)CC)C(=O)N(C)CC(=O)N(C)[C@H]2C/C=C\CCN(C2=O)[C@@H](Cc2ccc(C(F)(F)F)cc2)C(=O)N(C)CC(=O)N[C@@H](CCc2cc(F)c(C(F)(F)F)c(F)c2)C(=O)N2C[C@H](OCC)C[C@H]2C(=O)NC2(CCC2)C(=O)N(C)[C@@H](C2CCCC2)C(=O)N(C)[C@H](C(=O)N(C)CCC)CC(=O)N1C | 0.13
CCO[C@@H]1C[C@H]2C(=O)NC3(CC(C)(C)C3)C(=O)N(C)[C@@H](C3CCCC3)C(=O)N(C)[C@H](C(=O)N(C)C)CC(=O)N(C)[C@H]3CCCCCc4ccc(cc4)C[C@@H](C(=O)N(C)CC(=O)N[C@@H](CCc4ccc(C(F)(F)F)c(OC)c4)C(=O)N2C1)N1CC/C=C\C[C@@H](C1=O)N(C)C(=O)CN(C1CC1)C(=O)[C@H]([C@@H](C)CC)NC3=O | 0.076
CCOC[C@H]1C(=O)N[C@@H]([C@@H](C)CC)C(=O)N(C)CC(=O)N(C)[C@H]2C/C=C\CCN(C2=O)[C@@H](Cc2ccc(C)cc2)C(=O)N(C)CC(=O)N[C@@H](CCc2ccc(C(F)(F)F)c(Cl)c2)C(=O)N2C[C@H](OCC)C[C@H]2C(=O)NC2(CC(C)(C)C2)C(=O)N(C)[C@@H](C2CCCC2)C(=O)N(C)[C@H](C(=O)N(C)CC)CC(=O)N1C | 0.12

Now for the compound whose Kd we want.
Q. Consider the compound CCC[C@H]1C(=O)N[C@@H]([C@@H](C)CC)C(=O)N(C2CC2)CC(=O)N(C)[C@H]2C/C=C\CCN(C2=O)[C@@H](Cc2ccc(C)cc2)C(=O)N(C)CC(=O)N[C@@H](CCc2ccc(C(F)(F)F)c(OC)c2)C(=O)N2C[C@H](OCC)C[C@H]2C(=O)N(C)C2(CCC2)C(=O)N(C)[C@@H](C2CCCC2)C(=O)N(C)[C@H](C(=O)N2CCCC2)CC(=O)N1C . State its measured Kd.
A. 0.24
